# Target of assay: T1, engrailed homeodomain (enHD) (UniProt P02836 456-509)
# T1 sequence: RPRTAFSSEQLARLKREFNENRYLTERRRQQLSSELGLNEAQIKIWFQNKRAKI
# Procedure details: NMR titration (1H-15N HSQC, R456 side-chain NH); 700 mM NaCl, 20 mM acetate pH 4, 298 K; NMR: 200 uM enHD, 298 K, 5% D2O; 20 mM MES pH 6 + 25 mM NaCl; 20 mM acetate pH 4 + 300 or 700 mM NaCl; 25 mM phosphate pH 6.8 + 50 mM NaCl. CD: 15 uM enHD and DNA, 20 mM MES pH 6, 25 mM NaCl, room temperature
# Condition notes: protein: recombinant; tags: none (untagged, or SUMO/His tag cleaved by ULP1); 15N or 13C,15N labelled for NMR; 5' overhang 1 nt on each strand, 20 bp
Readout: pKd
Answers are plain numbers, as −log10 of the molar value.

Any idea what its pKd is? The binder is cognate DNA (same as X-ray structure) (dsDNA) DNA 1: TTTTGCCATGTAATTACCTAA DNA 2: ATTAGGTAATTACATGGCAAA
3.77
